assayed-target: human GPBAR1 (Homo sapiens)
Construct: expressed in transfected cells; host or cells: HEK-293T
Sequence (Q8TDU6 1-330): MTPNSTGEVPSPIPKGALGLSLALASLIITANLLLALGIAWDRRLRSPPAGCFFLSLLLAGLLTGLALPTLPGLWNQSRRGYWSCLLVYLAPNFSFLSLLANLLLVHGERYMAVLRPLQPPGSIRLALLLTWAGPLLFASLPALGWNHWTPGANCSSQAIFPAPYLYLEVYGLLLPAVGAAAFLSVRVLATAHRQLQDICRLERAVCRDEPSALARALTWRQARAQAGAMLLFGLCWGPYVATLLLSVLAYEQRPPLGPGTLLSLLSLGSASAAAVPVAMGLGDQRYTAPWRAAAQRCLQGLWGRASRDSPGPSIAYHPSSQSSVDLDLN
protocol-text: GPBAR1 transactivation (CRE-luciferase) in HEK-293T cells
Assay type: cell-based
settings: Hek293T; transactivation induced by TLCA (10 μM); read-out: Hek293T GPBAR1 Antagonism IC50
metric-name: IC50

compound: OCc1ccc(-c2ccc(OCc3cc(-c4c(Cl)cccc4Cl)no3)cc2)cc1 [PDL103]
experimental-result: 19 µM
